The origin of these recorded values is patent US8148385B2.

Target Entity: ADP P2Y12 (Homo sapiens)
Sequence (Q9H244 whole entry): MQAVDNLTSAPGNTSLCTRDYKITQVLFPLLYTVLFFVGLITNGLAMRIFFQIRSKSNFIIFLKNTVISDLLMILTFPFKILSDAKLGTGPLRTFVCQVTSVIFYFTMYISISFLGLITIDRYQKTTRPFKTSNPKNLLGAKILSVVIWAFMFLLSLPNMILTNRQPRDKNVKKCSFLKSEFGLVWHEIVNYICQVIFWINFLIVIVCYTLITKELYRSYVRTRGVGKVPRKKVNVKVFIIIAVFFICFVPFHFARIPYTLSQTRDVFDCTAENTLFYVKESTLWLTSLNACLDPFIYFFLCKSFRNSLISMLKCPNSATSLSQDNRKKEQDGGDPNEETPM
Test Details: FLIPR calcium assay transducing Gi-coupled signaling to the Gq pathway (inhibition of calcium mobilization)
Measurement Conditions: HEK 293 cells co-transfected with P2Y12 and Gqi5, ADP at EC60-70 dose
I'd be grateful if you could share measured IC50 for these entries.
Numbers only, in µM.

{"Compound": "CCCSc1nc(N[C@@H]2C[C@H]2c2ccccc2)c2nnn([C@@H]3CC[C@H](O)[C@@H](O)[C@H]3O)c2n1 (mixture of isomers)", "Test Result": 0.456}

// next entry
# IC50 (compound: CCCSc1nc(N[C@@H]2C[C@H]2c2ccccc2)c2nnn([C@@H]3CC[C@H](OCCO)[C@@H](O)[C@H]3O)c2n1 (mixture of isomers) ) is 2.63

* * *

Target Entity: ADP P2Y12 (Homo sapiens)
Test Details: FLIPR calcium assay transducing Gi-coupled signaling to the Gq pathway (inhibition of calcium mobilization)
Measurement Conditions: HEK 293 cells co-transfected with P2Y12 and Gqi5, ADP at EC60-70 dose
Excerpt: A FLIPR Calcium Assay Transducing Gi-Coupled Signaling to the Gq Pathway The ADP P2Y12 subtype is a Gi coupled GPCR, which mediates inhibition of adenylate cyclase leading to decreased cAMP while Gq proteins primarily activate phospholipase C, which stimulates inositol-1,4,5-triphosphate (IP3) formation and a subsequent increase in intracellular Ca^2+ concentration, which can be easily measured by FLIPR. […]
pIC50: −log10 of the molar value.
Endpoint: pIC50

These recorded examples may help you get a feel for the data.
{"Molecule": "CCCSc1nc(NCCc2cccs2)c2nnn([C@@H]3C=C[C@H](O)[C@@H](O)[C@H]3O)c2n1", "pIC50": 4.83}
{"Molecule": "CCCSc1nc(N[C@@H]2CCN(Cc3ccccc3)C2)c2nnn([C@@H]3CC[C@H](O)[C@@H](O)[C@H]3O)c2n1", "pIC50": "< 4.52"}
{"Molecule": "CCCSc1nc(NCc2ccco2)c2nnn([C@@H]3CC[C@H](O)[C@@H](O)[C@H]3O)c2n1", "pIC50": "< 4.52"}

// for each molecule below, give its pIC50
1. CCCSc1nc(N[C@@H]2C[C@H]2c2ccccc2)c2nnn(C3[C@@H](O)[C@@H](O)C(OCCO)[C@@H](O)[C@H]3O)c2n1 (mixture of isomers)
2. CCCCNc1nc(SCCC)nc2c1nnn2[C@@H]1CC[C@H](O)[C@@H](O)[C@H]1O
3. CCCSc1nc(N[C@@H]2C[C@H]2c2ccccc2)c2nnn([C@@H]3C=C[C@H](O)[C@H]4OC(C)(C)O[C@H]43)c2n1 (mixture of isomers)
4. CCCSc1nc(NCCc2cccs2)c2nnn([C@@H]3CC[C@H](O)[C@@H](O)[C@H]3O)c2n1
5. CCCSc1nc(NC[C@H]2CCCO2)c2nnn([C@@H]3CC[C@H](O)[C@@H](O)[C@H]3O)c2n1
6. CCCSc1nc(NCC2CCCN2CC)c2nnn([C@@H]3CC[C@H](O)[C@@H](O)[C@H]3O)c2n1 (stereo partly drawn)
7. CCCCNc1nc(SCCC)nc2c1nnn2[C@@H]1C=C[C@H](O)[C@@H](O)[C@H]1O
8. CCCSc1nc(N[C@@H]2C[C@H]2c2ccccc2)c2nnn([C@H]3[C@H](O)[C@H](O)[C@@H](O)[C@H](O)[C@@H]3O)c2n1 (racemic)

Ans:
1: 5.16; 2: 5.53; 3: < 4.52; 4: < 4.52; 5: < 4.52; 6: < 4.52; 7: 5.67; 8: 5.53
